measured-target: UniProt P31424
Sequence (P31424 whole entry): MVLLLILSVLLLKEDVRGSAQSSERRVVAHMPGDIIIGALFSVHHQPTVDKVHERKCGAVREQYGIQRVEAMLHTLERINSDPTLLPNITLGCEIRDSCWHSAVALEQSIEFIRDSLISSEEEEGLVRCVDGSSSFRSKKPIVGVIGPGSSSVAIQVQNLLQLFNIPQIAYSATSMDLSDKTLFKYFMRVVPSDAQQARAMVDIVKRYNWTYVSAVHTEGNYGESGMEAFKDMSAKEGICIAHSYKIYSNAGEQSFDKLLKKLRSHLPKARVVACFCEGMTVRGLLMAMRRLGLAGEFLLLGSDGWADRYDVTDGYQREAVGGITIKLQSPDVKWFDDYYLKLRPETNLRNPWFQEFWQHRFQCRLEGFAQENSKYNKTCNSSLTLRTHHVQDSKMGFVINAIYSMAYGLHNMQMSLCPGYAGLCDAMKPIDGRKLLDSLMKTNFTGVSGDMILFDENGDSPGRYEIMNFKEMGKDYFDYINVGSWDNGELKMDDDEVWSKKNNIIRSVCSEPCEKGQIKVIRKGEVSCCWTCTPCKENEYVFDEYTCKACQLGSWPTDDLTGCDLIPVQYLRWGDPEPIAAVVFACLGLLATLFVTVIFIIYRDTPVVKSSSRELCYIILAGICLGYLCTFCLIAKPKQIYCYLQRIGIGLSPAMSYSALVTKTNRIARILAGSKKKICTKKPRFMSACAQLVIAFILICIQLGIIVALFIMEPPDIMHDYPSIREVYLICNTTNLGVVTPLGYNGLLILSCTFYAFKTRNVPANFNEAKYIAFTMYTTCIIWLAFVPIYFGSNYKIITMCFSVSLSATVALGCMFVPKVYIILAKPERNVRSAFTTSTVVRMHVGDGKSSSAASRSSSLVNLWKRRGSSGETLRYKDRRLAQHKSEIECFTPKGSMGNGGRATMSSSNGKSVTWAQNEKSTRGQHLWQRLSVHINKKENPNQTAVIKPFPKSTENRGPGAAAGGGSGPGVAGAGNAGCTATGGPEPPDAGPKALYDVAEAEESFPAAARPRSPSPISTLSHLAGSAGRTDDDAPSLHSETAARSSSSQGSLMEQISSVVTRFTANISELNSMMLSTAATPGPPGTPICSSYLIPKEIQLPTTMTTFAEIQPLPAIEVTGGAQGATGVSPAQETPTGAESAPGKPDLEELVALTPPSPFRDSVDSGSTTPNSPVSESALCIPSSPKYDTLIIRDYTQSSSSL
run-description: Antagonistic activity against rat (mGluR) metabotropic glutamate receptor 5a stably expressed in chinese hamster ovary (CHO) cells
molecules and their reported EC50

compound-string: N[C@@](Cc1ccccc1)(Cn1oc(=O)[nH]c1=O)C(=O)O
EC50: ~300 µM

compound-string: C[C@](N)(Cn1oc(=O)[nH]c1=O)C(=O)O
EC50: ~1000 µM

* * *

measured-target: Metabotropic glutamate receptor 4 (Rattus norvegicus)
Sequence (P31423 whole entry): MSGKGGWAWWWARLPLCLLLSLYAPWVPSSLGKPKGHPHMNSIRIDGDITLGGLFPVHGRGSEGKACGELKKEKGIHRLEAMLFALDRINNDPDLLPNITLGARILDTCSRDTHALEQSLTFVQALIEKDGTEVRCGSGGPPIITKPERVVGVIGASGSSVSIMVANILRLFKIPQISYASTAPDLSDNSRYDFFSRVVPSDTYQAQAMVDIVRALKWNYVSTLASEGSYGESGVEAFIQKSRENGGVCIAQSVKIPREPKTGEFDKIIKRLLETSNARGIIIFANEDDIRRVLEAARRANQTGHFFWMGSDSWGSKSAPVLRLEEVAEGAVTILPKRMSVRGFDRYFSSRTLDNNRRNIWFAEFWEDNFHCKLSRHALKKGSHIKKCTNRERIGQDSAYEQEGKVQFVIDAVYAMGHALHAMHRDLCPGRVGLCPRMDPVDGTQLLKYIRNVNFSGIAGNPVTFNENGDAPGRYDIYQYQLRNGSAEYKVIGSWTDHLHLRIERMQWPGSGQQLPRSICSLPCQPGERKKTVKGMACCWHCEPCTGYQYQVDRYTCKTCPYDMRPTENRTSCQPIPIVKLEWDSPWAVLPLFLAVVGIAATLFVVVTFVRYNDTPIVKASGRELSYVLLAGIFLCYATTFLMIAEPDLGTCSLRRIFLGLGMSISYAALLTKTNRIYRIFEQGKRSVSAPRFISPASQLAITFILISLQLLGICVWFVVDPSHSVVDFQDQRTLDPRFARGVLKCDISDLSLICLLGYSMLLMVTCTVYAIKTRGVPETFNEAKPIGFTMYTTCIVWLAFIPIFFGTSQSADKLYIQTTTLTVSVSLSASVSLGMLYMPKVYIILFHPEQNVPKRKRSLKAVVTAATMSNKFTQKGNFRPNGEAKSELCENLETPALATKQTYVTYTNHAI
run-description: Antagonistic activity against rat (mGluR) metabotropic glutamate receptor 4a stably expressed in chinese hamster ovary (CHO) cells
pEC50: −log10 of the molar value.

compound-string: N[C@@](Cc1ccccc1)(Cn1oc(=O)[nH]c1=O)C(=O)O
pEC50: < 3.00

compound-string: C[C@](N)(Cn1oc(=O)[nH]c1=O)C(=O)O
pEC50: < 3.00

Source: ChEMBL document CHEMBL1130758
